Entries annotated with measured inhibition
target: Fatty acid-binding protein, adipocyte (Homo sapiens, UniProt P15090); test: Displacement of 8-anilino-1-naphthalene-sulfonic acid from human His-FABP4 expressed in Escherichia coli BL21 (DE3) cells at 100 uM after 3 mins
Sequence (P15090 2-132 limits assumed): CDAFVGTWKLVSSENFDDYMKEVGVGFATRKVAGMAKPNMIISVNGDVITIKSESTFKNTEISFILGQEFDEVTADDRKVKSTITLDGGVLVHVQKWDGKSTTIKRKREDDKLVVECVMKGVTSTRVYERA
Field: numeric (%). Do not append units.

compound	observed-result
COC(=O)c1cc(OC)c(OC)cc1NC(=O)CSCC(=O)O	46.9

Q) inhibition of Cc1ccc(SC(CC(=O)c2ccc(C)cc2)C(=O)O)cc1 (stereo not drawn) on Fatty acid-binding protein, adipocyte (Homo sapiens, UniProt P15090)?
A) 44.4

Q) inhibition of "c1cc(CSc2nc3ccccc3[nH]2)nc(CSc2nc3ccccc3[nH]2)c1" on Fatty acid-binding protein, adipocyte (Homo sapiens, UniProt P15090)?
A) 47.7
